- System: Key Broadleaf Weed and Crop Species
- Test name: Post-emergent Test II herbicidal activity (Table 15)
- Assay type: in vivo
- Conditions used: Brassica napus, post-emergence, 336 h, oilseed rape, canola (Brassica napus), 140 g ai/ha, 14 d, read-out: Visual Growth Reduction (%) 14 Days After Application, BRSNN
Answer each item with its documented pest or weed control at 140 g/ha.

> print(dat)
                                   compound                     property.name  value.reported
1  COC(=O)c1nc(-c2ccc(Cl)c3[nH]ccc23)cc(N)c1Cl [Compound 1.44]  pest or weed control at 140 g/ha       30 to 44%

Respectfully, I request pest or weed control at 140 g/ha for each entry included below.
1. COc1c(N)nc(-c2ccc3sccc3c2)nc1C(=O)O [Compound 3.09]
2. COC(=O)c1nc(-c2ccc3sccc3c2)c(F)c(N)c1Cl [Compound 3.03]
3. COC(=O)c1nc(-c2cccc3sccc23)c(F)c(N)c1Cl [Compound 3.23]
4. COC(=O)c1nc(-c2ccc3ccoc3c2F)c(F)c(N)c1Cl [Compound 2.09]

OUT:
95 to 100%
60 to 74%
0 to 29%
85 to 94%
